biological target: human TLR9 (Homo sapiens, UniProt Q9NR96); test: HEK293-Blue-hTLR-9 cells assay (SEAP reporter, ODN2006 stimulation); conditions: HEK293-Blue-hTLR9 cells, ODN2006, 20 hrs incubation; read-out: HEK/hTLR9 IC50
Sequence (Q9NR96 26-1032): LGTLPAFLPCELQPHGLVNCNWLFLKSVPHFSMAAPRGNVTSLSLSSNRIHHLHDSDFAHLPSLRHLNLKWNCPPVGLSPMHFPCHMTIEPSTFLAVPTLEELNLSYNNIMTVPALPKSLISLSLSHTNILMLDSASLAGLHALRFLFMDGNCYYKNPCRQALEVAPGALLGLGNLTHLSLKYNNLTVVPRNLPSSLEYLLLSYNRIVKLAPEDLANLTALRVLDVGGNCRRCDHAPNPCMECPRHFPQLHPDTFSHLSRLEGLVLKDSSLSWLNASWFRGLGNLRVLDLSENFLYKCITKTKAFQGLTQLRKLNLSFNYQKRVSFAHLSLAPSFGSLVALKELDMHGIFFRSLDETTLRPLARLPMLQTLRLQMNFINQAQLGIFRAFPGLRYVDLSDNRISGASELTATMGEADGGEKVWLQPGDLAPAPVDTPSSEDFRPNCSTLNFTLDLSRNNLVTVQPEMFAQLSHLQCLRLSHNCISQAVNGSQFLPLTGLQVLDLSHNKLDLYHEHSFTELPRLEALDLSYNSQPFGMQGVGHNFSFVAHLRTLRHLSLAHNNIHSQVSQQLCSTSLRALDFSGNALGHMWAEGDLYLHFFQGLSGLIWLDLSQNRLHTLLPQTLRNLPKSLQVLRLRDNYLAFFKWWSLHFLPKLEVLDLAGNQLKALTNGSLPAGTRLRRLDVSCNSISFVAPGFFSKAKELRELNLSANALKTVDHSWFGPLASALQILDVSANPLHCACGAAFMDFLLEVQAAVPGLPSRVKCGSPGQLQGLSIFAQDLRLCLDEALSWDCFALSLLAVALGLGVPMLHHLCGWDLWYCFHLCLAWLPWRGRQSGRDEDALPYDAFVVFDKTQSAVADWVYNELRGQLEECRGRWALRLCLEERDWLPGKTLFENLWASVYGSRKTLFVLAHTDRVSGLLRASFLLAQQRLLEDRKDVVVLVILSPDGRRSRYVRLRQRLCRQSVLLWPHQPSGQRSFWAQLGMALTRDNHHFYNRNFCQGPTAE
Observation type: pIC50
Please note pIC50 is a logarithmic value: minus log10 of concentration in mol/L. Answer with that number alone.

# molecule CO[C@H]1CNC[C@H]1Nc1ccc2c(c1)C[C@H]1CN(c3ccc(C#N)c4ncccc34)C[C@@H](C)N1C2 ; its pIC50 = 6.96

# molecule C[C@@H]1CN(c2ccc(C#N)c3ncccc23)C[C@@H]2Cc3cc(N[C@@H]4CNC[C@@H]4F)ccc3CN21 ; its pIC50 = 6.97

# molecule C[C@@H]1CN(c2ccc(C#N)c3ncccc23)C[C@@H]2Cc3cc(OCCN(C)C)ccc3CN21 ; its pIC50 = 7.09

# molecule C[C@@H]1CN(c2ccc(C#N)c3ncccc23)C[C@@H]2Cc3ccc(NCCN4CC[C@H](O)C4)cc3CN21 ; its pIC50 = 7.35

# molecule C[C@@H]1CN(c2ccc(C#N)c3ncccc23)C[C@@H]2Cc3cc(N4CC5CNCCC5C4=O)ccc3CN21 (some centres unmarked) ; its pIC50 = 7.35

# molecule C[C@@H]1CN(c2ccc(C#N)c3ncccc23)C[C@@H]2Cc3ccc(N4CCOCC(N)C4)cc3CN21 (some centres unmarked) ; its pIC50 = 7.19

# molecule C[C@@H]1CN(c2ccc(C#N)c3ncccc23)C[C@@H]2Cc3ccc(OCCN(C)C)cc3CN21 ; its pIC50 = 7.02

# molecule CO[C@H]1CN(c2ccc3c(c2)C[C@H]2CN(c4ccc(C#N)c5ncccc45)C[C@@H](C)N2C3)C[C@H]1N ; its pIC50 = 6.86

# molecule C[C@@H]1CN(c2ccc(C#N)c3ncccc23)C[C@@H]2Cc3cc(N4CC5NCCOC5C4)ccc3CN21 (stereo in doubt) ; its pIC50 = 7.11

# molecule C[C@@H]1CN(c2ccc(C#N)c3ncccc23)C[C@@H]2Cc3cc(N4CC5CCNCC5C4=O)ccc3CN21 (some centres unmarked) ; its pIC50 = 7.19

# molecule C[C@@H]1CN(c2ccc(C#N)c3ncccc23)C[C@@H]2Cc3cc(N4C[C@@H]5C[C@H]4CN5C(=O)C(C)(C)N)ccc3CN21 ; its pIC50 = 6.90

# molecule C[C@@H]1CN(c2ccc(C#N)c3ncccc23)C[C@@H]2Cc3cc(N4C[C@H]5CNCCN5C4=O)ccc3CN21 (single isomer, unassigned) [Example 17B] ; its pIC50 = 6.97

# molecule C[C@@H]1CN(c2ccc(C#N)c3ncccc23)C[C@@H]2Cc3cc(N4CCN(C(=O)C(C)(C)N)CC4)ccc3CN21 ; its pIC50 = 7.07

# molecule C[C@@H]1CN(c2ccc(C#N)c3ncccc23)C[C@@H]2Cc3cc(OC[C@@H]4CCN4)ccc3CN21 ; its pIC50 = 6.93
